The reported numbers originate from patent US20220372014A1.

Target: UniProt P14174
Assay: Nuclease assay of Example 3 (MIF inhibitory activity, Table 4)
Assay type: biochemical
Details: nuclease assay of Example 3
Values of (%) inhibition of MIF nuclease activity greater than or equal to 10% map to 1.0; values below map to 0.0.

{"compound": "COc1ccc(CC[C@H]2OC(=O)[C@@H]3CCCCN3C(=O)C(=O)C(C)(C)COC(=O)C=CCCN(C)C(=O)CNC(=O)[C@H](COC(C)(C)C)N(C)C(=O)C(c3ccccc3)NC(=O)[C@H](C)N(C)C(=O)COc3cccc2c3)cc1OC (some centres unmarked)", "discrete.label": 1.0}

Inquiry: Check this compound for (%) inhibition of MIF nuclease activity at or above 10%: `COc1ccc(CC[C@H]2OC(=O)[C@@H]3CCCCN3C(=O)C(=O)C(C)(C)COC(=O)C=CCCN(C)C(=O)[C@H](Cc3ccccc3)NC(=O)[C@H](Cc3ccccc3)N(C)C(=O)[C@@H](C)NC(=O)CN(C)C(=O)COc3cccc2c3)cc1OC`
Reply text: 1.0

Inquiry: Same for COc1ccc(CC[C@H]2OC(=O)[C@@H]3CCCCN3C(=O)C(=O)C(C)(C)COC(=O)C=CCCN(C)C(=O)C(c3ccccc3)NC(=O)[C@H](COC(C)(C)C)N(C)C(=O)[C@@H](CC(C)C)NC(=O)CN(C)C(=O)COc3cccc2c3)cc1OC (some centres unmarked)
Reply text: 0.0

Inquiry: Same for COc1ccc(CC[C@H]2OC(=O)[C@@H]3CCCCN3C(=O)C(=O)C(C)(C)COC(=O)C=CCCN(C)C(=O)[C@H](CC3CCCCC3)NC(=O)[C@H](COC(C)(C)C)N(C)C(=O)C(c3ccccc3)NC(=O)[C@H](C)N(C)C(=O)COc3cccc2c3)cc1OC (some centres unmarked)
Reply text: 1.0

Inquiry: Same for `COc1ccc(CC[C@H]2OC(=O)[C@@H]3CCCCN3C(=O)C(=O)C(C)(C)COC(=O)C=CCCN(C)C(=O)[C@H](Cc3ccc(F)cc3)NC(=O)[C@H](C(C)C)N(C)C(=O)[C@@H](Cc3ccccc3)NC(=O)[C@H](CC(C)C)N(C)C(=O)CCC(=O)Nc3cccc2c3)cc1OC`
Reply text: 1.0

---

Molecular target: MIF (Homo sapiens)
Sequence (P14174 whole entry): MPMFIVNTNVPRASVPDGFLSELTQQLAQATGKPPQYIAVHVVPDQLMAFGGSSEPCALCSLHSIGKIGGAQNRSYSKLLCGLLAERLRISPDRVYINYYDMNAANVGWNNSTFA
Experiment: Nuclease assay of Example 3 (MIF inhibitory activity, Table 4)
Format: biochemical
Set-up: concentration or dose not given beside the values
Details: nuclease assay of Example 3
Excerpt: A rapafucin library was synthesized as described in WO2017/136708 and Guo et al. (2018) Nat. Chem. 11:254-63. The hybrid macrocyclic library consisted of 45,000 compounds in pools of 15 individual compounds. The library compounds were screened for MIF inhibitory activity using a nuclease assay as detailed in FIG. 1 and below. […]
assay.endpoint: (%) inhibition of MIF nuclease activity

Hey, quick one: what's (%) inhibition of MIF nuclease activity for each of these?
1. COc1ccc(CC[C@H]2OC(=O)[C@@H]3CCCCN3C(=O)C(=O)C(C)(C)COC(=O)C=CCCN(C)C(=O)[C@H](Cc3ccc4ccccc4c3)NC(=O)[C@H](COC(C)(C)C)N(C)C(=O)C(c3ccccc3)NC(=O)[C@H](C)N(C)C(=O)COc3cccc2c3)cc1OC (stereo partly shown)
2. COc1ccc(CC[C@H]2OC(=O)[C@@H]3CCCCN3C(=O)C(=O)C(C)(C)COC(=O)C=CCCN(C)C(=O)[C@@H]3CCCN3C(=O)[C@H](COC(C)(C)C)N(C)C(=O)[C@H](c3ccccc3)NC(=O)[C@H](C)N(C)C(=O)COc3cc(F)cc2c3)cc1OC (racemic)
3. COc1ccc(CC[C@H]2OC(=O)[C@@H]3CCCCN3C(=O)C(=O)C(C)(C)COC(=O)C=CCCN(C)C(=O)[C@H](c3ccccc3)NC(=O)[C@H](COC(C)(C)C)N(C)C(=O)C(c3ccccc3)NC(=O)[C@H](C)N(C)C(=O)COc3cccc2c3)cc1OC (stereo partly shown)
4. COc1ccc(CC[C@H]2OC(=O)[C@@H]3CCCCN3C(=O)C(=O)C(C)(C)COC(=O)C=CCCN(C)C(=O)[C@@H]3CCCN3C(=O)[C@H](COC(C)(C)C)N(C)C(=O)C(c3ccccc3)NC(=O)[C@H](C)N(C)C(=O)COc3cccc2c3)c(O)c1OC (stereo partly shown)

Reply text:
1. 16.5%
2. 38.2%
3. 59.4%
4. 19.7%
